Reference source for all entries: the supplement of paper PMC10567573

test: protein stability index of a GFP-peptide fusion (GPS, HEK-293T) (PSI 1-6); higher = more stable; conditions: treatment: DMSO; c terminus: a fixed tail appended;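 further: 24-mer peptide tiles fused after GFP, lentivirally expressed, FACS-sorted into six equal bins by GFP/DsRed ratio, decoded by Illumina sequencing, PSI is the read-weighted mean bin number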
MEASUREMENT TYPE: protein stability index

Consider the sequence shown here: GPALAGEPAGSLRELGVWRSLLRL [C2CD2L] What is its recorded protein stability index? 2.66

Consider the sequence shown here: VSSDGTLKYMEVTLRPTDSQSHCY [PCDHGC5] What is its recorded protein stability index? 2.8

Consider the sequence shown here: PSVADNLLASSDAALSASMASLLE [SERTAD1] What is its recorded protein stability index? 4.51

Consider the sequence shown here: GGHTREARIQTLEPDNWMKEVMLF [RSAD1] What is its recorded protein stability index? 2.51

Consider the sequence shown here: LWEKVMPSRYAAIYNGGVEAVSTL [SLC19A2] What is its recorded protein stability index? 2.19

Consider the sequence shown here: EANADLEVKIRDWHLKQSPASPER [KRT13] What is its recorded protein stability index? 4.79

Consider the sequence shown here: NMEKYNFLGISIVGQSNERGDGGI [DVL3] What is its recorded protein stability index? 3.18

Consider the sequence shown here: GKFIRLKNTSEQDQPMGGWEMIRK [LMNB1] What is its recorded protein stability index? 3.73

Consider the sequence shown here: THVTLLITVTQSHLVIQNLFEGMI [CDS1] What is its recorded protein stability index? 3.09

Consider the sequence shown here: WELHSLRHCDDDGRTENGALAPKQ [ZNF24] What is its recorded protein stability index? 4.91

Consider the sequence shown here: CEGPPRGKGFRDRNVTGTPLTGDK [ADAMTSL2] What is its recorded protein stability index? 5.07

Consider the sequence shown here: LQNKVPLLGSSTACIVVLDRTSHR [PPTC7] What is its recorded protein stability index? 2.14

Consider the sequence shown here: HIIRIGDLKPTGEIPKQVKVKKLK [DENND6A] What is its recorded protein stability index? 2.73

----------
test: protein stability index of a GFP-peptide fusion (GPS, HEK-293T) (PSI 1-6); higher = more stable; conditions: treatment: MLN4924 1 uM, 8 h; c terminus: a fixed tail appended
MEASUREMENT TYPE: protein stability index

Consider the sequence shown here: GDVCYADVYRDGTGVVEFVRKEDM [SRSF1] What is its recorded protein stability index? 4.37

Consider the sequence shown here: GPAAFVDYFERNWEPRRDMWVRFR [ZSWIM9] What is its recorded protein stability index? 2.46

Consider the sequence shown here: LRDRAERIASRAIDNAADLLIFGK [SNX8] What is its recorded protein stability index? 3.6

Consider the sequence shown here: STEKVVQETVLVEERRVVHASGDA [EPB41L3] What is its recorded protein stability index? 4.93

Consider the sequence shown here: GYGGSRDSYSSSRSDLYSSGRDRV [RBMX] What is its recorded protein stability index? 3.99

Consider the sequence shown here: GKEVSGDQIEDMFEQGKWDVFSEN [STX11] What is its recorded protein stability index? 4.31

Consider the sequence shown here: ENAPIGTLLLRLNATDPDEGTNGQ [PCDHGC5] What is its recorded protein stability index? 4.92

Consider the sequence shown here: MPDTFNSRSPSVEGSLWAVGTESQ [PXN] What is its recorded protein stability index? 4.38

Consider the sequence shown here: LLLGAGESGKSTIVKQMKIIHEAG [GNAI1] What is its recorded protein stability index? 2.54

Consider the sequence shown here: LQRDFLKQRPTKLKSLIRLVKHWY [OAS1] What is its recorded protein stability index? 3.15

Consider the sequence shown here: RSLSACNKRVGMYLEGFDPFNQST [DLC1] What is its recorded protein stability index? 2.81

Consider the sequence shown here: AQNREPESVEQLESRIVEQENAIQ [SNX8] What is its recorded protein stability index? 5.52

Consider the sequence shown here: RCHRGYTLDPNGKTCSRVDHCAQQ [MATN2] What is its recorded protein stability index? 3.22
